- TESTED ON: Autotaxin (Homo sapiens, UniProt Q13822)
- EXPERIMENTAL PROTOCOL: Inhibition of human recombinant C-terminal FLAG-tagged autotaxin expressed in baculovirus-infected Sf9 cells assessed as FS-3 hydrolysis at 10 uM relative to control
Rule: Satisfied for inhibition not less than 20%, Not satisfied for anything less.

Record excerpt, results attached:
O=S(=O)(O)c1cc(O)c2ccc(Nc3ccc4c(O)cc(S(=O)(=O)O)cc4c3)cc2c1 : Not satisfied
COc1ccc(/C=N/NC(=N)C(=N)N/N=C/c2ccc(OC)c(S(=O)(=O)O)c2)cc1S(=O)(=O)O : Not satisfied
CC(=O)Nc1ccc(/N=N/c2c(S(=O)(=O)O)cc3cc(NC(=O)Nc4ccc5c(O)c(/N=N/c6ccccc6)c(S(=O)(=O)O)cc5c4)ccc3c2O)cc1 : Not satisfied
COc1cc(/N=N/c2cc(S(=O)(=O)O)cc3cc(S(=O)(=O)O)cc(O)c23)c(C)cc1/N=N/c1c(S(=O)(=O)O)cc2cc(Nc3ccccc3)ccc2c1O : Satisfied
Nc1ccc(C(=O)Nc2ccc(NC(=O)Nc3ccc(NC(=O)c4ccc(N)cc4)c(S(=O)(=O)O)c3)cc2S(=O)(=O)O)cc1 : Not satisfied

Data request: API: above_or_equal(metric=inhibition, cutoff=20%) for item `Nc1ccc(C(=O)Nc2ccc(C(=O)Nc3ccc4c(O)cc(S(=O)(=O)O)cc4c3)cc2)cc1`
Data returned: Satisfied

Data request: API: above_or_equal(metric=inhibition, cutoff=20%) for item `CC(=O)Nc1ccc(/C=C/c2ccc(NC(=O)Nc3ccc(/C=C/c4ccc(NC(C)=O)cc4S(=O)(=O)O)c(S(=O)(=O)O)c3)cc2S(=O)(=O)O)c(S(=O)(=O)O)c1`
Data returned: Satisfied

* * *

- TESTED ON: Autotaxin (Homo sapiens, UniProt Q13822)
- EXPERIMENTAL PROTOCOL: Inhibition of human recombinant C-terminal FLAG-tagged autotaxin expressed in baculovirus-infected Sf9 cells assessed as FS-3 hydrolysis at 10 uM relative to control
Grouping rule (inhibition): class 0 = under 10%, class 1 = from 10% up to 40%, class 2 = 40% and over

Data request: Kindly identify the class of Cc1cc(C(O)(c2ccc(Nc3ccccc3)cc2)c2ccc(Nc3ccc(S(=O)(=O)O)cc3)cc2)ccc1N (stereo not drawn) .
Data returned: class 2

Data request: Kindly identify the class of `Nc1ccc2cc(S(=O)(=O)O)cc(O)c2c1/N=N/c1ccc(-c2ccc(/N=N/c3c(S(=O)(=O)O)cc4cc(S(=O)(=O)O)c(/N=N/c5ccc([N+](=O)[O-])cc5)c(N)c4c3O)cc2)cc1` .
Data returned: class 2

* * *

- TESTED ON: Autotaxin (Homo sapiens, UniProt Q13822)
- EXPERIMENTAL PROTOCOL: Inhibition of human recombinant C-terminal FLAG-tagged autotaxin expressed in baculovirus-infected Sf9 cells assessed as FS-3 hydrolysis at 10 uM relative to control
# inhibition annotations
Lab book: enter the figure in %, no units written.

Value of inhibition reported for the molecule `COc1cc(/N=N/c2ccc3cc(S(=O)(=O)O)cc(S(=O)(=O)O)c3c2)ccc1/N=N/c1ccc(NC(=O)c2ccc(NC(=O)c3ccccc3)cc2)cc1C` is 77

Value of inhibition reported for the molecule `O=S(=O)(O)c1ccc(/N=N/Nc2ccc(S(=O)(=O)O)cc2)cc1` is 1

Value of inhibition reported for the molecule `O=C(Nc1cccc(C(=O)Nc2ccc(S(=O)(=O)O)c3cc(S(=O)(=O)O)cc(S(=O)(=O)O)c23)c1)Nc1cccc(C(=O)Nc2cccc3c(S(=O)(=O)O)c(S(=O)(=O)O)cc(S(=O)(=O)O)c23)c1` is 27

Reference for the values: ChEMBL document CHEMBL1156229
